- Tested on: ASPC-1 tumor-bearing mice
- assayText: Biodistribution of radionuclide labeled complexes in ASPC-1 tumor-bearing mice
- Type: in vivo, BALB/c nude mice
- reportedConditions: Intestine, 4 h
parameter: % ID/g (4 h) Intestine (% ID/g)
Report only the number, with the unit % ID/g understood.

compound	parameter	obsValue
COc1cccc(OC)c1-c1cc(C(=O)NC2(C(=O)O)C3CC4CC(C3)CC2C4)nn1-c1ccc(N(CCCN(C)C)C(=O)COCCOCCNC(=O)CN2CCN(CC(=O)[O-])CCN(CC(=O)[O-])CCN(CC(=O)[O-])CC2)cc1C(C)C.[177Lu+3] (centres unmarked) [^177Lu-I-6]	% ID/g (4 h) Intestine	0.22

Name the recorded % ID/g (4 h) Intestine for COc1cccc(OC)c1-c1cc(C(=O)NC2(C(=O)O)C3CC4CC(C3)CC2C4)nn1-c1ccc(NCCOCCOCCNC(=O)CN2CCN(CC(=O)[O-])CCN(CC(=O)[O-])CCN(CC(=O)[O-])CC2)cc1C(C)C.[177Lu+3] (centres unmarked) [^177Lu-I-10] . 1.86

// % ID/g (4 h) Intestine lookup, key: COc1cccc(OC)c1-c1cc(C(=O)NC2(C(=O)O)C3CC4CC(C3)CC2C4)nn1-c1ccc(NCCCN(C)CCCNC(=O)CN2CCN(CC(=O)[O-])CCN(CC(=O)[O-])CCN(CC(=O)[O-])CC2)cc1C(C)C.[177Lu+3] (centres unmarked) [^177Lu-I-2] 2.00

Would you mind telling me what % ID/g (4 h) Intestine value was observed for COc1cccc(OC)c1-c1cc(C(=O)NC2(C(=O)O)C3CC4CC(C3)CC2C4)nn1-c1ccc(SCCCN(C)CCCN(C)C(=O)CN2CCN(CC(=O)[O-])CCN(CC(=O)[O-])CCN(CC(=O)[O-])CC2)cc1C(C)C.[177Lu+3] (centres unmarked) [^177Lu-I-8] ? 3.51

Bench note: what % ID/g (4 h) Intestine did COc1cccc(OC)c1-c1cc(C(=O)NC2(C(=O)O)C3CC4CC(C3)CC2C4)nn1-c1ccc(C(=O)N(CCCNC(=O)CN2CCN(CC(=O)[O-])CCN(CC(=O)[O-])CCN(CC(=O)[O-])CC2)CCCN(C)C)cc1C(C)C.[177Lu+3] (centres unmarked) [^177Lu-C-5, reference compound] show? 0.42

###

- System: ASPC-1 tumor-bearing mice
- assayText: Biodistribution of radionuclide labeled complexes in ASPC-1 tumor-bearing mice
- Format: in vivo, BALB/c nude mice
- reportedConditions: ^177Lu-labeled complex
parameter: AUC (0-72 h) ratio Tumor/Blood
Please reply with the value in numeric form only.

compound	AUC (0-72 h) ratio Tumor/Blood
COc1cccc(OC)c1-c1cc(C(=O)NC2(C(=O)O)C3CC4CC(C3)CC2C4)nn1-c1ccc(OCCCN(C)CCCN(C)C(=O)CN2CCN(CC(=O)O)CCN(CC(=O)O)CCN(CC(=O)O)CC2)cc1C(C)C (stereo not shown) [Compound I-7]	34.4
COc1cccc(OC)c1-c1cc(C(=O)NC2(C(=O)O)C3CC4CC(C3)CC2C4)nn1-c1ccc(NCCCN(C)CCCNC(=O)CN2CCN(CC(=O)O)CCN(CC(=O)O)CCN(CC(=O)O)CC2)cc1C(C)C (stereo not shown) [Compound I-2]	12.5
COc1cccc(OC)c1-c1cc(C(=O)NC2(C(=O)O)C3CC4CC(C3)CC2C4)nn1-c1ccc(N(C)CCCN(C)CCCN(C)C(=O)CN2CCN(CC(=O)O)CCN(CC(=O)O)CCN(CC(=O)O)CC2)cc1C(C)C (stereo not shown) [Compound I-1]	36.5

Find the measured AUC (0-72 h) ratio Tumor/Blood: item COc1cccc(OC)c1-c1cc(C(=O)NC2(C(=O)O)C3CC4CC(C3)CC2C4)nn1-c1ccc(NCCOCCOCCNC(=O)CN2CCN(CC(=O)O)CCN(CC(=O)O)CCN(CC(=O)O)CC2)cc1C(C)C (stereo not shown) [Compound I-10] , target or system ASPC-1 tumor-bearing mice. 58.0
